Data origin, for the record: patent US20260115250A1

Item-by-item account of Kd
# Assay target: Low Density Lipoprotein Receptor (LDLR), recombinant (UniProt P01130 22-788)
# Experiment summary: SPR; HBS + 0.005% P20, peptide
Measurement label: Kd (µM)

1) T-117 (peptide) peptide: RSGADALESALKELKRFIREWTLGQSTEELRVRLASHLRKLRKRLLRDADDLQKRLAVYQA = 0.4
2) LASHLRKLRKRLLR [T-072] = 8.27
3) T-114 (peptide) peptide: LKDFGERVARALREQFEDLGQSTEELRVRLASHLRKLRKRLLRDADDLQKRLAVYQA = 2.7
4) T-115 (peptide) peptide: DHINKVQRKVTHEIERLFLGQSTEELRVRLASHLRKLRKRLLRDADDLQKRLAVYQA = 0.42
